Where do these numbers come from? They come from ChEMBL document CHEMBL4130469.

Each record here notes measured IC50.
target: Neuraminidase (Influenza A virus (A/Puerto Rico/8/1934(H1N1)), UniProt P03468); assay: Inhibition of neuraminidase activity in Influenza A virus (A/PR/8/34 (H1N1)) infected in MDCK cells using 4-MU-NANA as substrate pretreated for 30 mins followed by substrate addition measured after 2 hrs by fluorescence assay
Sequence (P03468 whole entry): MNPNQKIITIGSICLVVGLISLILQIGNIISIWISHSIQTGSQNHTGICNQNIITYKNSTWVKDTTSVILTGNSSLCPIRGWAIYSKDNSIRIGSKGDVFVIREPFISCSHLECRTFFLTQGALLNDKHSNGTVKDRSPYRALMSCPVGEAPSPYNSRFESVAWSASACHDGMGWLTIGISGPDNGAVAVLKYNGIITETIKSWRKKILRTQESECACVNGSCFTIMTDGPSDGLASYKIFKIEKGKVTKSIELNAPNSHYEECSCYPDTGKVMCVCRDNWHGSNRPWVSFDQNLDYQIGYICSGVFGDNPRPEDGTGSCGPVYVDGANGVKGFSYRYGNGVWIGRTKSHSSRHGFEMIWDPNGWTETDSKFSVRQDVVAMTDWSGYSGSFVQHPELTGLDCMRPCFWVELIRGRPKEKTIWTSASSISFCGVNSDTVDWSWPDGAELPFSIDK
assay.readout: IC50 (µM)

> print(dat)
                                smiles.text  reported.measurement
1  Cc1c(O)c(C)c2c(c1O)C(=O)C[C@@H](c1ccccc1O)O2                  23.9
2  Cc1c(O)c(C)c2c(c1O)C(=O)C[C@@H](c1ccccc1)O2                  30.3
3  COc1ccc([C@@H]2CC(=O)c3c(O)c(C)c(O)c(C)c3O2)cc1                  25.2
4  COc1cc(O)cc([C@@H]2CC(=O)c3c(O)c(C)c(O)c(C)c3O2)c1                  24.4
5  COc1ccc(O)c([C@@H]2CC(=O)c3c(O)c(C)c(O)c(C)c3O2)c1                  24.5

###

experiment: Cytotoxicity against MDCK cells after 2 days by MTT assay; assay type: cell-based, Canis lupus familiaris; details: dog
# Lookup of reported CC50 at 48 h keyed by entry
assay.readout: CC50 at 48 h

> print(dat)
                                smiles.text  reported.measurement
1  COc1ccc([C@@H]2CC(=O)c3c(O)c(C)c(O)c(C)c3O2)cc1              > 100 µM
2  Cc1c(O)c(C)c2c(c1O)C(=O)C[C@@H](c1ccccc1)O2               77.6 µM
3  COc1cc(O)cc([C@@H]2CC(=O)c3c(O)c(C)c(O)c(C)c3O2)c1              > 100 µM
4  COc1ccc(O)c([C@@H]2CC(=O)c3c(O)c(C)c(O)c(C)c3O2)c1              > 100 µM
5  Cc1c(O)c(C)c2c(c1O)C(=O)C[C@@H](c1ccccc1O)O2              > 100 µM
